tested on: MS2 coat protein; test: apparent KD of MS2 coat protein; higher = weaker reporter binding; conditions: Eterna round: R107; input ligand: none
measuredAttribute: apparent KD of MS2 coat protein (nM)
One number for each entry, in nM.

Completed entries (count: 2):
INSERT INTO results (macromoleculesequence, valueunits, reportedvalue) VALUES
  ('AAAAUCCUAUCUGAGGAUCACCCAGGUGAAGGAGCGCCCGAAAGGGCAGGUAGGUCGCACCUGAGGAUCACCCUGGUAAACCUAA [ArgEX 21 #DoubleMS2 #OpenEnded]', 'nM', 76.7),
  ('AUACAUGAGGAUCACCCAUGUCAUACAGAAGGAGCGUCACAUAAGACAGGUAGGUCGCUGAUAUAUACGUCACGAAUAGUGACGA [JR_SSArginiA_Sub017]', 'nM', 18.6);

For each of the sequences below, note its apparent KD of MS2 coat protein.
1. AAACGCCACGGAAGGAGCGACAUGAGGAUCACCCAUGUAGUUUUGGCGGAUGCACCCUCCUGUCAGGUAGGUCGCCGUGCGAUAA [XArg-B26]
2. UCCAUCGGCGGAAGCCGAUGGUUUACAGAAGGAGCGUGGAUUAACACAGGUAGGUCGCUGGACAUGAGGAUCACCCAUGUGAUAG [SSAA #6]
3. UGUAUGUGAUCUGAUACCAGCUAGCGGAAACGCAAAAGCUUGAGGAUCACCCAAGUGGAAAGCCCUUGGCAGCAGAUCGCAUACU [Denovo 1 #StaticStem #AlternativeMS2]
4. UAUGCACAUGAGGAUCACCCAUGUAUGGAAGGAGCGGUGAAUGAACCAGGUAGGUCGCCAUGGUGAGGAUCAUCUAUGUAAUCGU [Exclusion - Arginine A (Freestyle 7)]

A.
[35.8, 60.4, 15.1, 86]

* * *

test system: K4 kissing-loop RNA reporter; assay: apparent KD of K4 kissing-loop reporter; higher = weaker reporter binding; conditions: Eterna round: R107; input ligand: none;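 note: bound reporter read as fluorescence of individual clusters on recovered sequencing chips by microscopy, with normalized cluster intensities fitted with a binding model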
measuredAttribute: apparent KD of K4 kissing-loop reporter (nM)
Answers are plain numbers, in nM.

Illustrative cases are given below, each with its answer.
INSERT INTO measurements (macromoleculesequence, reportedvalue) VALUES
  ('GUAGUUGCGCAAGGAUAUUAGUUAAGUGAUGUUUGAUUCGGUAUUGUUUACGUACACUGACCCGAUUAAGAAGGUGCGGGCAGCG [theeternabot_exclusion_KL_FMN_B_50]', 580),
  ('AAUUUCGGAUACAUCAUAGUUUUAAUUCGGCGAGGACCGGUACGGCCGCCACUCGGUAUAGACGCGUCCAGUGAUGUUGGCGCUU [theeternabot_sameState_KL_Trp_A_45]', 237),
  ('UUAUUGAGCGUUUGUGAGAAGGCGUUCUUCAAGGAUAUCGACGUAACGAGAAGGUGAUUCGUUCCGAGUGAUGUUCGGUACGGGC [theeternabot_sameState_KL_FMN_A_4]', 234),
  ('AGGUUUUACGGAGGAUAUGCACUGAGGAGGAGAAUAUAGUGAUGUUAUAUAAGAGGAAGGAGAAGAGUAGAAGGCCGUGAGGUUU [SSFMNB.M]', 149),
  ('UGACAUUGCUCAGAUACCAGACAAGAGGAUCACCCUUGUGCCAACGUACAAAUAAUAAAUGUCCCUUGGCAGCUGAGCAAUGUCU [TheoBX 15]', 58.2);

For each of the sequences below, note its apparent KD of K4 kissing-loop reporter.
1. AGCGUCCCUACGGCCGCCACUGGGAGUGAUGUUCCCAGGUUAGGCCUGAGGAUACUAAGGAUCGCCAGGACCGGGUAGCGACCAU [Azaonbe]
2. GUAGGAUGAGGAGGAGGAUGAAUUACUGAAGGAGCGCAUAUUUUUGCAGGUAGGUCGCGGUAAAGAAGUAUAGUGAUGUUAUAUA [SSArgA.J]
3. AGACUUCACCGAAGGAGCGACGUAGCCUAGUGAUGUUAGGCACGAGAGAAAUCUCGUGUACGUCAGGUAGGUCGCGGUGAAGUCA [Omei KL Arginine B SS C v5]
4. UGUGGAGGAUAUGAUACCAGCAGUGAGAGAGAGGAAGUAUAGUGAUGUUAUAUGAGAGAAUGCCCUUGGCAGCGUAUGUAGUAGG [SSTheophylB.I]
5. AGCAGUCCAGGAUCGAAAGAUCCUGAGGUCCGAGGACCGGUACGGCCGCCACUCGGAGUGAUGUUCCGAAGACUGCAAAAUAAAA [#SwitchBubble 5]
6. GAAUUAUGUAGAAGGAGCGUUAGAAGGUAUAGGUGCGAGUGAUGUUUGGACUUGUUAAUUUGACAGGUAGGUCGCUACAGAAGGA [KL-SSArg B19 #analogue]
7. AUGGUAUUGCGAGGAUAUCCUUCAAAUGUGACACUAACGGCAGUGAUGUUGCCGGCGUCUUUUUGAGGAGAAGGCGCGGUGUUAU [Exclusion FMN B GF 24]

A.
1: 80.3; 2: 381; 3: 961; 4: 218; 5: 108; 6: 499; 7: 129

// provenance: the supplement of paper PMC9170038
